biological target: T1, human ROR1 on cells (HEK293T-hROR1, PANC-1, A549) (human, UniProt Q01973 30-937); test: flow cytometry on HEK293T-hROR1 cells, MFI (Mean)
T1 construct: whole, on cells; one molecule for the three cell lines; also called huROR1; cell surface ROR1
T1 sequence (Q01973 30-937): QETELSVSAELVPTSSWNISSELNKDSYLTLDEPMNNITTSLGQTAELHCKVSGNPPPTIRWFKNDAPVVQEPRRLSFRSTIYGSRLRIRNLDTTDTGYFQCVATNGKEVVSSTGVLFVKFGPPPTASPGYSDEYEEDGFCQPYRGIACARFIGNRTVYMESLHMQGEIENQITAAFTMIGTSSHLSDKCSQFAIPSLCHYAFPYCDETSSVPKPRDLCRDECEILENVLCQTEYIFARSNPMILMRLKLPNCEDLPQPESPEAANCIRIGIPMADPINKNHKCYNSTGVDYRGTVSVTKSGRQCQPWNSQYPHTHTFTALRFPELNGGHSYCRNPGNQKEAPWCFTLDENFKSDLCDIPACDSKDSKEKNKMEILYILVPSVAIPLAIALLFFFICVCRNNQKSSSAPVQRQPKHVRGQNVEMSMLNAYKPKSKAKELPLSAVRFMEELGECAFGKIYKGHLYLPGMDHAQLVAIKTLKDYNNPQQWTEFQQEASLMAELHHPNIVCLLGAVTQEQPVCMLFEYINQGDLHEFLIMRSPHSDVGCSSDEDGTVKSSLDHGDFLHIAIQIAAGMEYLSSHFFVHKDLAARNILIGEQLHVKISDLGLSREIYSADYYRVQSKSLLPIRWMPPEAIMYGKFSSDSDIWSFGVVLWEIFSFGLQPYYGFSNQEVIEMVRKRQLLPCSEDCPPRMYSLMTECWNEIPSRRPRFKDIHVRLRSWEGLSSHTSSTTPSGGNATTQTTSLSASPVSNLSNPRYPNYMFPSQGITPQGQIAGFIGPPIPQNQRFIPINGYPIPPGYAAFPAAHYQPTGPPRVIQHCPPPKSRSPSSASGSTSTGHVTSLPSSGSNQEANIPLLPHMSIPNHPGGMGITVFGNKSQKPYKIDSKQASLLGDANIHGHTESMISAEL
EC50 (read off the curve) listing for selected binders.

PR303147 (antibody, human IgG1, V domains shown, HCAb (heavy chain-only, human IgG1 Fc), no light chain) VH: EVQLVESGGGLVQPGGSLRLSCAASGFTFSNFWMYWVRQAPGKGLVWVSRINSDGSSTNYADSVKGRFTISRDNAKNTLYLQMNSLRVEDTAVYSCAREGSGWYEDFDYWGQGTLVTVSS; ~0.3 µg/mL
PR303191 (antibody, human IgG1, V domains shown, HCAb (heavy chain-only, human IgG1 Fc), no light chain) VH: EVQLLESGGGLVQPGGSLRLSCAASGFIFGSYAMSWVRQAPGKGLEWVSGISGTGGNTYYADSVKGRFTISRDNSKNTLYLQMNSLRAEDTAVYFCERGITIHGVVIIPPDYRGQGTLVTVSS; ~0.04 µg/mL
PR000374 (antibody, human IgG1, kappa, V domains shown, positive control; also called Bench marker 1) VH: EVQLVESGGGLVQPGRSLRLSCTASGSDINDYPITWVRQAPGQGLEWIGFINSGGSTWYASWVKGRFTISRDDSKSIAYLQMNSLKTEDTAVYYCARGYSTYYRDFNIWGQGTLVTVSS VL: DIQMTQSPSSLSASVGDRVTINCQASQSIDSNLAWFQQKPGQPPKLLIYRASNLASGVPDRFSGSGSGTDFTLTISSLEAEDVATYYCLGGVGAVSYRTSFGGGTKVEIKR; ~0.5 µg/mL

EC50 (read off the curve) reading for PR303201 (antibody, human IgG1, V domains shown, HCAb (heavy chain-only, human IgG1 Fc), no light chain) VH: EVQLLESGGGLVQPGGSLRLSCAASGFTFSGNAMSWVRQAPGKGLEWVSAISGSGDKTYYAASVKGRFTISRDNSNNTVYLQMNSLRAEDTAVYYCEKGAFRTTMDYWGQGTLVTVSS : ~0.06 µg/mL

The binder PR303125 (antibody, human IgG1, V domains shown, HCAb (heavy chain-only, human IgG1 Fc), no light chain) VH: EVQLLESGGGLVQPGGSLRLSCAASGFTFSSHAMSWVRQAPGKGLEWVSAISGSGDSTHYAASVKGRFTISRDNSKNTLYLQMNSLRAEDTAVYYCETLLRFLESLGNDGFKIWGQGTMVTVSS showed EC50 (read off the curve) equal to ~0.3 µg/mL
